system: Plasmodium berghei; test: Screen against P. berghei liver stage (PbLuc), transformed with Luciferase, at 10uM; assay type: functional, HepG2; details: tested at 10 uM
In all, about 69,000 compounds went through this assay and about 8,600 (12%) showed an effect of 50% or more. This is one part of a sample in which strong results are shown more often than they occur.
Metric: INHIBITION (%)
Enter your answer as a number in %; do not include the unit.

Problem: # lookup: INHIBITION of O=C1COC2(CCN(C(=O)c3ccco3)CC2)CN1Cc1cccnc1
Result: 43.2

Problem: Field entry: CCCOc1ccc2c(c1)OCC(C(=O)NC(C)Cn1ccnc1)=C2 (stereo not given)
Result: 51

Problem: Field entry: CC(=O)Nc1nc(C)c(S(=O)(=O)NCCc2cccnc2)s1
Result: 13

Problem: Field entry: CN1C(=N)NC(=O)/C1=C/c1ccc(-c2ccc(Br)cc2)o1
Result: 10.1

Problem: Field entry: O=C(NCc1ccc2c(c1)OCO2)c1ccc(N2CCCCC2)nn1
Result: 33.4

Problem: Field entry: CC(C)CO[C@@H]1CC[C@H]2[C@H]1OCCN2S(=O)(=O)C1CC1
Result: 28.3

Problem: Field entry: Cn1nnc2c1C(COCc1cccnc1)CN(Cc1ccoc1)C2 (stereo not given)
Result: 29.4

Problem: Field entry: O=C(Cc1cccc(F)c1)N1C[C@H]2CN(Cc3cccnc3)C[C@H]2C1
Result: 0.112

Problem: Field entry: CCCOc1ccc2c(c1)OCC(C(=O)NC(C)Cn1cccn1)=C2 (stereo not given)
Result: 30.9

Problem: Field entry: CCn1nc(C)c2nc(C(C)C)nc(NCC(=O)N3CCOCC3)c21
Result: 48.2

====

test system: Plasmodium berghei; experiment: Screen against P. berghei liver stage (PbLuc), transformed with Luciferase, at 10uM; format: functional, HepG2; settings: tested at 10 uM
Screen size: about 69,000 compounds; about 8,600 (12%) showed an effect of 50% or more. Shown is part of a subset that was picked to be rich in strong results.
Threshold rule: INHIBITION greater than or equal to 10% is 1; below that, -1.

Problem: Check if INHIBITION >= 10% (inclusive). Item: CCN1CCOC(CNCc2ccccc2OCc2ccncc2)C1 (centres undefined)
Result: 1

Problem: Field entry: CCOCCNC(=O)c1ccn(S(=O)(=O)c2ccc(C)cc2)c1
Result: 1

Problem: Field entry: O=C1CC2(CCN(Cc3ccncc3)C2)CN1c1cccc(F)c1 (centres undefined)
Result: -1

Problem: Field entry: CCN1CC(CN(C)Cc2nc(-c3ccc(C)o3)oc2C)CC1=O (centres undefined)
Result: 1

Problem: Field entry: O=C(C1=CCCC1)N1C[C@@H]2COC[C@]2(COc2ncccc2F)C1
Result: 1

Problem: Field entry: Cc1ccc(-c2cnnc(N3CCCC3c3nccs3)n2)o1 (centres undefined)
Result: 1

Problem: Field entry: O=C(Cc1ccccc1)N1CCC2(CC(=O)N(c3cccc(F)c3)C2)C1 (centres undefined)
Result: -1

Problem: Field entry: Cc1ccc(S(=O)(=O)n2ccc(C(=O)NCC(F)(F)F)c2)cc1
Result: 1

Problem: Field entry: COc1ccnc(N2CCC(OCCN3CCCCC3)C2)n1 (centres undefined)
Result: 1

====

test system: Plasmodium berghei; assay: Screen against P. berghei liver stage (PbLuc), transformed with Luciferase, at 10uM; format: functional, HepG2; conditions: tested at 10 uM
In all, about 69,000 compounds went through this assay and about 8,600 (12%) showed an effect of 50% or more. What follows is part of a selection rich in strong results, with near analogues and random picks from the rest.
Answer each item with its documented INHIBITION.
Enter your answer as a number in %; do not include the unit.

Problem: # value lookup — system Plasmodium berghei, readout INHIBITION, item CSc1ccc(CN(C(=O)c2cc(=O)[nH]c(=O)[nH]2)C2CC2)cc1
Result: 59.1

Problem: Field entry: Cc1cc(NCCCOC(C)C)c2nncn2n1
Result: 13.4

Problem: Field entry: Cc1ccc(C(=O)N(C)Cc2ccc3c(c2)OCO3)c(=O)[nH]1
Result: 17.8

Problem: Field entry: Cc1ccc(C(=O)N(Cc2ccc(F)cc2)C2CC2)c(=O)[nH]1
Result: -37.8

Problem: Field entry: COc1cc(-c2cnnc(NCCSC)n2)cc(OC)c1OC
Result: 52.2

Problem: Field entry: CSc1ccc(CN(C(=O)c2cc[nH]n2)C2CC2)cc1
Result: 59.1

Problem: Field entry: Cc1cc(-c2cc3nc(C)c(C)c(NCC4COCCO4)n3n2)no1 (stereo unspecified)
Result: 8.57

Problem: Field entry: CSc1ccc(CN(C(=O)c2cc(C)[nH]c(=O)c2)C2CC2)cc1
Result: 50.8

Problem: Field entry: COC1CCN(c2ccc(F)cc2CN(C)C(=O)c2cc[nH]n2)CC1
Result: -74.8

Problem: Field entry: CNc1cc(-c2cc(OC)c(OC)c(OC)c2)ncn1
Result: 27.8

Problem: Field entry: CCCn1cnc2c(cnn2-c2cccc(C)c2C)c1=O
Result: -70.6
